Source: ChEMBL document CHEMBL3885861

Organism: Rattus norvegicus
assay-method-text: Open TG-GATES - Regimen: Daily Repeat
Format: toxicity, organism-based, Sprague-Dawley
Parameters: regimen Daily Repeat, gender Male, age 6 weeks
condition-parameters: in vivo, po, 100 mg/kg, […], tissue Plasma, route gavage, dose level Low, time 28 day
quantity-kind: Ca
For clarity, give the value followed by its unit.

Worked set:
>  <smiles-code>
CCOc1ccc(NC(C)=O)cc1

>  <experimental-value>
10.8 mg/dL

$$$$
>  <smiles-code>
CNC(=C[N+](=O)[O-])NCCSCc1ccc(CN(C)C)o1

>  <experimental-value>
10.3 mg/dL

$$$$
>  <smiles-code>
Cc1nnc2n1-c1ccc(Cl)cc1C(c1ccccc1Cl)=NC2

>  <experimental-value>
10.7 mg/dL

$$$$

Tell me Ca reported for CN/C(=N/CCSCc1nc[nH]c1C)NC#N 10.3 mg/dL

Return Ca (reported value) for this molecule: COC(=O)C1=C(C)NC(C)=C(C(=O)OC)C1c1ccccc1[N+](=O)[O-] 10.4 mg/dL

Tell us which Ca value is on record for O=C(OC[C@H]1O[C@@H](OC(=O)c2cc(O)c(O)c(OC(=O)c3cc(O)c(O)c(O)c3)c2)[C@H](OC(=O)c2cc(O)c(O)c(OC(=O)c3cc(O)c(O)c(O)c3)c2)[C@@H](OC(=O)c2cc(O)c(O)c(OC(=O)c3cc(O)c(O)c(O)c3)c2)[C@@H]1OC(=O)c1cc(O)c(O)c(OC(=O)c2cc(O)c(O)c(O)c2)c1)c1cc(O)c(O)c(OC(=O)c2cc(O)c(O)c(O)c2)c1 10.8 mg/dL

###

Species: Rattus norvegicus
assay-method-text: Open TG-GATES - Regimen: Daily Repeat
Format: toxicity, organism-based, Sprague-Dawley
Parameters: regimen Daily Repeat, gender Male, age 6 weeks
condition-parameters: in vivo, po, 1000 mg/kg, […], tissue Plasma, route gavage, dose level High, time 7 day
ALT listing for selected molecules.
# number only, unit IU/L dropped from output

Solved cases (4 shown):
>  <smiles-code>
O=C(OC[C@H]1O[C@@H](OC(=O)c2cc(O)c(O)c(OC(=O)c3cc(O)c(O)c(O)c3)c2)[C@H](OC(=O)c2cc(O)c(O)c(OC(=O)c3cc(O)c(O)c(O)c3)c2)[C@@H](OC(=O)c2cc(O)c(O)c(OC(=O)c3cc(O)c(O)c(O)c3)c2)[C@@H]1OC(=O)c1cc(O)c(O)c(OC(=O)c2cc(O)c(O)c(O)c2)c1)c1cc(O)c(O)c(OC(=O)c2cc(O)c(O)c(O)c2)c1

>  <ALT (IU/L)>
34.2

$$$$
>  <smiles-code>
CN/C(=N/CCSCc1nc[nH]c1C)NC#N

>  <ALT (IU/L)>
38.4

$$$$
>  <smiles-code>
CNC(=C[N+](=O)[O-])NCCSCc1ccc(CN(C)C)o1

>  <ALT (IU/L)>
37.2

$$$$
>  <smiles-code>
Cc1nnc2n1-c1ccc(Cl)cc1C(c1ccccc1Cl)=NC2

>  <ALT (IU/L)>
47.2

$$$$

Please give the documented ALT of CCOc1ccc(NC(C)=O)cc1 46.4

Report ALT for COC(=O)C1=C(C)NC(C)=C(C(=O)OC)C1c1ccccc1[N+](=O)[O-] 40.4

###

Below, each entry is listed with its recorded Neu.
Organism: Rattus norvegicus
assay-method-text: Open TG-GATES - Regimen: Single
Type: toxicity, organism-based, Sprague-Dawley
Parameters: regimen Single, gender Male, age 6 weeks
condition-parameters: in vivo, po, 0 mg/kg, 9 h, tissue Blood, route gavage, dose level Control
Form entry: value (%) — number only.

Please review the following examples before continuing.
>  <compound>
CNC(=C[N+](=O)[O-])NCCSCc1ccc(CN(C)C)o1

>  <u>
%

>  <Neu>
14.2

$$$$
>  <compound>
CCCc1cc(=O)[nH]c(=S)[nH]1

>  <u>
%

>  <Neu>
15.2

$$$$
>  <compound>
NC1=NC(=O)C(c2ccccc2)O1 (centres undefined)

>  <u>
%

>  <Neu>
20.2

$$$$

Name the recorded Neu of the compound listed here: Nc1c2c(nc3ccccc13)CCCC2 15

###

List of LIVER values.
Organism: Rattus norvegicus
assay-method-text: Open TG-GATES - Regimen: Single
Assay type: toxicity, organism-based, Sprague-Dawley
Design: regimen Single, gender Male, age 6 weeks
condition-parameters: in vivo, po, 300 mg/kg, 3 h, tissue Liver, route gavage, dose level Middle
The figure you give is taken to be in g; do not add the unit.

>  <compound>
Cc1nnc2n1-c1ccc(Cl)cc1C(c1ccccc1Cl)=NC2 [TRIAZOLAM]

>  <LIVER, g>
8.6

$$$$

Hello, please tell me recorded LIVER for this one: O=C(OC[C@H]1O[C@@H](OC(=O)c2cc(O)c(O)c(OC(=O)c3cc(O)c(O)c(O)c3)c2)[C@H](OC(=O)c2cc(O)c(O)c(OC(=O)c3cc(O)c(O)c(O)c3)c2)[C@@H](OC(=O)c2cc(O)c(O)c(OC(=O)c3cc(O)c(O)c(O)c3)c2)[C@@H]1OC(=O)c1cc(O)c(O)c(OC(=O)c2cc(O)c(O)c(O)c2)c1)c1cc(O)c(O)c(OC(=O)c2cc(O)c(O)c(O)c2)c1 [TANNIC ACID] 8.5

###

Species on record: Rattus norvegicus
assay-method-text: Open TG-GATES - Regimen: Daily Repeat
Format: toxicity, organism-based, Sprague-Dawley
Parameters: regimen Daily Repeat, gender Male, age 6 weeks
condition-parameters: in vivo, po, 0 mg/kg, […], tissue Blood, route gavage, dose level Control, time 14 day
PT listing for selected molecules.
A number alone suffices; assume s.

Examples with answers:
>  <molecule>
CCOc1ccc(NC(C)=O)cc1 [PHENACETIN]

>  <PT (s)>
13.3

$$$$
>  <molecule>
Cc1nnc2n1-c1ccc(Cl)cc1C(c1ccccc1Cl)=NC2 [TRIAZOLAM]

>  <PT (s)>
13.6

$$$$
>  <molecule>
CC(C)NNC(=O)c1ccncc1 [IPRONIAZID]

>  <PT (s)>
16

$$$$

// next item, PT requested
Quote PT reported for CCCc1cc(=O)[nH]c(=S)[nH]1 [PROPYLTHIOURACIL] please. 12.1

###

TP: recorded values
Organism: Rattus norvegicus
assay-method-text: Open TG-GATES - Regimen: Daily Repeat
Format: toxicity, organism-based, Sprague-Dawley
Parameters: regimen Daily Repeat, gender Male, age 6 weeks
condition-parameters: in vivo, po, 1000 mg/kg, […], tissue Plasma, route gavage, dose level High, time 7 day
Write it as a number; the unit g/dL goes unstated.

Here are 5 molecules together with their reported answers.
>  <smiles-code>
COC(=O)C1=C(C)NC(C)=C(C(=O)OC)C1c1ccccc1[N+](=O)[O-]

>  <TP / g/dL>
5.7

$$$$
>  <smiles-code>
Cc1nnc2n1-c1ccc(Cl)cc1C(c1ccccc1Cl)=NC2

>  <TP / g/dL>
5.7

$$$$
>  <smiles-code>
O=C(OC[C@H]1O[C@@H](OC(=O)c2cc(O)c(O)c(OC(=O)c3cc(O)c(O)c(O)c3)c2)[C@H](OC(=O)c2cc(O)c(O)c(OC(=O)c3cc(O)c(O)c(O)c3)c2)[C@@H](OC(=O)c2cc(O)c(O)c(OC(=O)c3cc(O)c(O)c(O)c3)c2)[C@@H]1OC(=O)c1cc(O)c(O)c(OC(=O)c2cc(O)c(O)c(O)c2)c1)c1cc(O)c(O)c(OC(=O)c2cc(O)c(O)c(O)c2)c1

>  <TP / g/dL>
5.9

$$$$
>  <smiles-code>
CNC(=C[N+](=O)[O-])NCCSCc1ccc(CN(C)C)o1

>  <TP / g/dL>
5.5

$$$$
>  <smiles-code>
CCOc1ccc(NC(C)=O)cc1

>  <TP / g/dL>
6

$$$$

Give a short answer stating reported TP for CN/C(=N/CCSCc1nc[nH]c1C)NC#N . 5.6

###

Species: Rattus norvegicus
assay-method-text: Open TG-GATES - Regimen: Single
Format: toxicity, organism-based, Sprague-Dawley
Set-up: regimen Single, gender Male, age 6 weeks
condition-parameters: in vivo, po, 1000 mg/kg, 24 h, tissue Blood, route gavage, dose level High
# if measured Mono < 3%: YES  # else: NO

Solved cases (4 shown):
>  <smiles-code>
O=C(OC[C@H]1O[C@@H](OC(=O)c2cc(O)c(O)c(OC(=O)c3cc(O)c(O)c(O)c3)c2)[C@H](OC(=O)c2cc(O)c(O)c(OC(=O)c3cc(O)c(O)c(O)c3)c2)[C@@H](OC(=O)c2cc(O)c(O)c(OC(=O)c3cc(O)c(O)c(O)c3)c2)[C@@H]1OC(=O)c1cc(O)c(O)c(OC(=O)c2cc(O)c(O)c(O)c2)c1)c1cc(O)c(O)c(OC(=O)c2cc(O)c(O)c(O)c2)c1

>  <assigned-category>
NO

$$$$
>  <smiles-code>
Cc1nnc2n1-c1ccc(Cl)cc1C(c1ccccc1Cl)=NC2

>  <assigned-category>
YES

$$$$
>  <smiles-code>
CN/C(=N/CCSCc1nc[nH]c1C)NC#N

>  <assigned-category>
YES

$$$$
>  <smiles-code>
COC(=O)C1=C(C)NC(C)=C(C(=O)OC)C1c1ccccc1[N+](=O)[O-]

>  <assigned-category>
NO

$$$$

Here is another compound to look at.
Is 3% strictly greater than the compound's reported Mono? compound: CNC(=C[N+](=O)[O-])NCCSCc1ccc(CN(C)C)o1 NO
